src = patent US20240415914A1

assay-procedure: Stability of cannabinoid and Vitamin E components of Beverage 2 (AB Red) stored at 8° C. and 21-25° C., LCMSMS over 570 days
test-conditions: 21-25° C., 29 days
attribute-measured: Stability of Cannabinoids in AB Red (µg/mL)
One number for each entry, in µg/mL.

The following compounds have reported results that may help.
CCCCCc1cc(O)c2c(c1)OC1(C)CCC3C1C2C3(C)C (stereo not drawn) : 0.49
CCCCCc1cc(O)c2c(c1)OC(C)(C)[C@@H]1CCC(C)=C[C@@H]21 [D9 THC, delta-9-tetrahydrocannabinol, reference compound] : 12.7
C=C(C)[C@@H]1CCC(C)=C[C@H]1c1c(O)cc(CCCCC)c(C(=O)O)c1O : 1.62
CCCCCc1cc(O)c(C/C=C(\C)CCC=C(C)C)c(O)c1 : 4.78

Please report Stability of Cannabinoids in AB Red for every entry that follows.
1. CCCc1cc(O)c2c(c1)OC(C)(C)[C@@H]1CCC(C)=C[C@@H]21 [THCV, delta-9-tetrahydrocannabivarin]
2. CCCCCc1cc2c(c(O)c1C(=O)O)[C@@H]1C=C(C)CC[C@H]1C(C)(C)O2 [D9 THCA, delta-9-tetrahydrocannabinolic acid]
3. CCCCCc1cc(O)c2c(c1)OC(C)(CCC=C(C)C)C=C2 (stereo not drawn)

1: 3.15; 2: 1.33; 3: 0.29

For the 2 compounds below, give their Stability of Cannabinoids in AB Red values.
1. C=C(C)[C@@H]1CCC(C)=C[C@H]1c1c(O)cc(CCC)cc1O
2. CCCCCc1cc(O)c2c(c1)OC(C)(C)c1ccc(C)cc1-2

0.19
2.78

----------
assay-procedure: Stability of cannabinoid and Vitamin E components of Beverage 1 (AB White) stored at 8° C. and 21-25° C., LCMSMS over 570 days
Assay type: physicochemical
test-conditions: beverage stored at 8° C., day 360
Give measured Stability in AB White, 8° C. (content by LCMSMS) for each item. Keep answers brief.
Answers are plain numbers, in µg/mL.

The cases that follow already have their Stability in AB White, 8° C. (content by LCMSMS) on record.
CCCCCc1cc(O)c2c(c1)OC(C)(CCC=C(C)C)C=C2 (stereo not shown) : 0.306
CCCc1cc(O)c2c(c1)OC(C)(C)[C@@H]1CCC(C)=C[C@@H]21 [THCV, delta-9-tetrahydrocannabivarin] : 3.50
CCCCCc1cc(O)c(C/C=C(\C)CCC=C(C)C)c(O)c1 : 4.66

# per-item lookup of Stability in AB White, 8° C. (content by LCMSMS); items listed below
1. C=C(C)[C@@H]1CCC(C)=C[C@H]1c1c(O)cc(CCCCC)cc1O [CBD, cannabidiol, reference compound]
2. C=C(C)[C@@H]1CCC(C)=C[C@H]1c1c(O)cc(CCC)cc1O
3. CCCCCc1cc(O)c2c(c1)OC1(C)CCC3C1C2C3(C)C (stereo not shown)
4. CCCCCc1cc(O)c2c(c1)OC(C)(C)[C@@H]1CCC(C)=C[C@@H]21 [D9 THC, delta-9-tetrahydrocannabinol, reference compound]
5. CCCCCc1cc(O)c2c(c1)OC(C)(C)c1ccc(C)cc1-2
6. CCCCCc1cc2c(c(O)c1C(=O)O)[C@@H]1C=C(C)CC[C@H]1C(C)(C)O2 [D9 THCA, delta-9-tetrahydrocannabinolic acid]
7. C=C(C)[C@@H]1CCC(C)=C[C@H]1c1c(O)cc(CCCCC)c(C(=O)O)c1O

1: 27.79; 2: 0.145; 3: 0.533; 4: 11.88; 5: 2.68; 6: 0.913; 7: 1.70

----------
assay-procedure: Stability of cannabinoid and Vitamin E components of Beverage 2 (AB Red) stored at 8° C. and 21-25° C., LCMSMS over 570 days
test-conditions: 8° C., 120 days
Response field class: string, computed from recorded Stability of Cannabinoids in AB Red by ranges low (below 0.5 µg/mL), medium (0.5 µg/mL to below 3 µg/mL), high (3 µg/mL or more)

Some solved entries appear below for comparison.
C=C(C)[C@@H]1CCC(C)=C[C@H]1c1c(O)cc(CCC)cc1O [CBDV, cannabidivarin] : low
C=C(C)[C@@H]1CCC(C)=C[C@H]1c1c(O)cc(CCCCC)c(C(=O)O)c1O [CBDA, cannabidiolic acid] : medium
CCCCCc1cc(O)c(C/C=C(\C)CCC=C(C)C)c(O)c1 [CBG, cannabigerol] : high

--- query ---
Hey, which category is CCCc1cc(O)c2c(c1)OC(C)(C)[C@@H]1CCC(C)=C[C@@H]21 [THCV, delta-9-tetrahydrocannabivarin] in, do you know?
high

----------
assay-procedure: Stability of cannabinoid and Vitamin E components of Beverage 2 (AB Red) stored at 8° C. and 21-25° C., LCMSMS over 570 days
test-conditions: 8° C., 16 days
attribute-measured: Stability of Cannabinoids in AB Red (µg/mL)
Answers are plain numbers, in µg/mL.

C=C(C)[C@@H]1CCC(C)=C[C@H]1c1c(O)cc(CCC)cc1O [CBDV, cannabidivarin] : 0.195

Quick request: Stability of Cannabinoids in AB Red for each listed item, please.
1. CCCc1cc(O)c2c(c1)OC(C)(C)[C@@H]1CCC(C)=C[C@@H]21 [THCV, delta-9-tetrahydrocannabivarin]
2. CCCCCc1cc(O)c(C/C=C(\C)CCC=C(C)C)c(O)c1 [CBG, cannabigerol]

1: 3.25; 2: 4.65

# map each compound to its Stability of Cannabinoids in AB Red
1. CCCCCc1cc(O)c2c(c1)OC(C)(C)c1ccc(C)cc1-2 [CBN, cannabinol]
2. CCCCCc1cc2c(c(O)c1C(=O)O)[C@@H]1C=C(C)CC[C@H]1C(C)(C)O2 [D9 THCA, delta-9-tetrahydrocannabinolic acid]
3. CCCCCc1cc(O)c2c(c1)OC(C)(C)[C@@H]1CCC(C)=C[C@@H]21 [D9 THC, delta-9-tetrahydrocannabinol, reference compound]

1. 2.83
2. 1.31
3. 12.7

Look at each compound and report its Stability of Cannabinoids in AB Red.
1. CCCCCc1cc(O)c2c(c1)OC(C)(CCC=C(C)C)C=C2 (stereo not drawn) [CBC, cannabichromene]
2. C=C(C)[C@@H]1CCC(C)=C[C@H]1c1c(O)cc(CCCCC)c(C(=O)O)c1O [CBDA, cannabidiolic acid]
3. CCCCCc1cc(O)c2c(c1)OC1(C)CCC3C1C2C3(C)C (stereo not drawn) [CBL, cannabicyclol]

[0.283, 1.69, 0.502]

----------
assay-procedure: Stability of cannabinoid and Vitamin E components of Beverage 1 (AB White) stored at 8° C. and 21-25° C., LCMSMS over 570 days
Format: physicochemical
test-conditions: beverage stored at 21-25° C., day 300
Param label: returns true when Stability in AB White, 21-25° C. (content by LCMSMS) < 3 µg/mL, returns false otherwise, including exact equality.

Solved cases below.
CCCCCc1cc(O)c2c(c1)OC(C)(C)[C@@H]1CCC(C)=C[C@@H]21 [D9 THC, delta-9-tetrahydrocannabinol, reference compound] : false
C=C(C)[C@@H]1CCC(C)=C[C@H]1c1c(O)cc(CCCCC)c(C(=O)O)c1O : true
C=C(C)[C@@H]1CCC(C)=C[C@H]1c1c(O)cc(CCC)cc1O : true

State whether 3 µg/mL exceeds Stability in AB White, 21-25° C. (content by LCMSMS) recorded for CCCCCc1cc2c(c(O)c1C(=O)O)[C@@H]1C=C(C)CC[C@H]1C(C)(C)O2 [D9 THCA, delta-9-tetrahydrocannabinolic acid] .
true

Is it true that Stability in AB White, 21-25° C. (content by LCMSMS) reported for `CCCCCc1cc(O)c2c(c1)OC(C)(C)c1ccc(C)cc1-2` is less than 3 µg/mL?
true

Item CCCCCc1cc(O)c2c(c1)OC1(C)CCC3C1C2C3(C)C (stereo not drawn) : Stability in AB White, 21-25° C. (content by LCMSMS) beneath 3 µg/mL, strictly?
true

Strictly below 3 µg/mL: is that where Stability in AB White, 21-25° C. (content by LCMSMS) of `CCCCCc1cc(O)c(C/C=C(\C)CCC=C(C)C)c(O)c1` sits?
false

hey, is Stability in AB White, 21-25° C. (content by LCMSMS) for CCCCCc1cc(O)c2c(c1)OC(C)(CCC=C(C)C)C=C2 (stereo not drawn) lower than 3 µg/mL or not?
true

Is 3 µg/mL strictly greater than the compound's reported Stability in AB White, 21-25° C. (content by LCMSMS)? compound: CCCc1cc(O)c2c(c1)OC(C)(C)[C@@H]1CCC(C)=C[C@@H]21 [THCV, delta-9-tetrahydrocannabivarin]
false

----------
assay-procedure: Stability of cannabinoid and Vitamin E components of Beverage 1 (AB White) stored at 8° C. and 21-25° C., LCMSMS over 570 days
Format: physicochemical
test-conditions: beverage stored at 21-25° C., day 2
Labelling: Stability in AB White, 21-25° C. (content by LCMSMS) reported below 0.9 µg/mL becomes yes; at or above becomes no.

CCCCCc1cc(O)c2c(c1)OC(C)(CCC=C(C)C)C=C2 (stereo not drawn) [CBC, cannabichromene] : yes
CCCc1cc(O)c2c(c1)OC(C)(C)[C@@H]1CCC(C)=C[C@@H]21 [THCV, delta-9-tetrahydrocannabivarin] : no
CCCCCc1cc(O)c(C/C=C(\C)CCC=C(C)C)c(O)c1 [CBG, cannabigerol] : no

Does CCCCCc1cc(O)c2c(c1)OC1(C)CCC3C1C2C3(C)C (stereo not drawn) [CBL, cannabicyclol] have Stability in AB White, 21-25° C. (content by LCMSMS) strictly under 0.9 µg/mL?
yes
